test system: NCI-H460 lung; assay: NCI-60 one-dose screen, 48 h (100 = growth as untreated, 0 = no growth, -100 = all killed); conditions: 10 µM unless noted
The panel holds about 83,000 compounds, 20% with a hit somewhere; the sample as a whole holds those more often.
Flag rule - growth less than 20% flags Fulfilled; the remaining entries get Not fulfilled.

{"Compound": "N#Cc1c(Nc2ccccc2)nc2n(c1=O)-c1ccccc1Sc1ccccc1-2", "Class label": "Not fulfilled"}
{"Compound": "CN(C[C@H]1Cc2c(cccc2N2CCN(c3ncccn3)CC2)CN1)[C@H]1CCCc2cccnc21", "Class label": "Not fulfilled"}
{"Compound": "CCN1CCN(CC(=O)N2c3cccc4cccc(c34)N(C(=O)CN3CCN(CC)CC3)C2c2cn(-c3ccccc3)nc2-c2cccc([N+](=O)[O-])c2)CC1", "Class label": "Fulfilled"}
{"Compound": "Cc1ccc(S(=O)(=O)Nc2c(Br)cc(Br)cc2C(N)=O)cc1", "Class label": "Not fulfilled"}
{"Compound": "COc1cccc(/C=C/C(=O)Nc2cc(OC)c3c(c2)OCO3)c1", "Class label": "Not fulfilled"}
{"Compound": "CC(C)(C)OC(=O)NC(CSCc1ccccc1)C(=O)ON1C(=O)CCC1=O (centres undefined)", "Class label": "Not fulfilled"}
{"Compound": "COc1ccc(C(=O)NC(=O)Nc2cc3c(cc2F)/C(=C/c2[nH]c(C)c(CCC(=O)O)c2C)C(=O)N3)c(F)c1", "Class label": "Not fulfilled"}
{"Compound": "COc1ccc(-c2cc(-c3ccccc3)nc(SCCCC(=O)NO)n2)cc1OC", "Class label": "Fulfilled"}
{"Compound": "COc1ccc2c(c1)[nH]c(=O)c1c3cc(C)c(C)cc3cn21", "Class label": "Fulfilled"}
{"Compound": "O=[N+]([O-])c1cc(Cl)c2[nH]c3c(Cl)cc([N+](=O)[O-])cc3c2c1", "Class label": "Fulfilled"}
{"Compound": "CCOC(=O)c1cn2c3c(cccc3c1=O)C(=O)/C(=C/c1cccc(Cl)c1Cl)C2", "Class label": "Not fulfilled"}
{"Compound": "COc1ccc(-c2ccc(-c3ccc(-c4ccc(C(=N)N)cc4)s3)s2)cc1OC", "Class label": "Not fulfilled"}
{"Compound": "COc1ccc(/C=C(\\C#N)c2cc(OC)c3c(c2)OCO3)cc1", "Class label": "Fulfilled"}
{"Compound": "CC(O)CN1CCCCC1 (centres undefined)", "Class label": "Not fulfilled"}
{"Compound": "S=C1CC(=S)NC(=S)N1", "Class label": "Not fulfilled"}
{"Compound": "CC1(C)C(=O)/C(=C\\c2ccc(C(F)(F)F)cc2)C[C@]2(C)[C@H]3CC[C@@H]4[C@H]5[C@H](C(=O)/C=C/c6ccc(C(F)(F)F)cc6)CC[C@]5(CO)CC[C@@]4(C)[C@]3(C)CC[C@@H]12", "Class label": "Not fulfilled"}
{"Compound": "CN1C(=O)N(C)C2C1NN=c1s/c(=C\\C=C\\c3ccccc3)c(=O)n12 (centres undefined)", "Class label": "Not fulfilled"}
{"Compound": "CC(C)(C)n1cc(-c2ccnc(NCCCNS(=O)(=O)c3ccc(F)cc3)c2)c(-c2cccc(O)c2)n1", "Class label": "Fulfilled"}

Hello, the source for this data is PubChem BioAssay (NCI), in case you need it.
